- method: solvent given as SMILES
- measurementParameters: in CCCCO
Measured emission maximum of individual entries
Value expressed in nm; do not type the unit.

Lookup: Supply emission maximum value. Item: CC1=C(C(C)(C)C)C(C)=[N+]2C1=C(C)c1c(C)c(C(C)(C)C)c(C)n1[B-]2(F)F
Found: 566.6

Lookup: Look up emission maximum of CC(C)(C)c1ccc2oc(-c3ccc(-c4nc5cc(C(C)(C)C)ccc5o4)s3)nc2c1 and report it.
Found: 434

Lookup: Give the reported value of emission maximum for this record: Cc1ccc2c(CC(=O)NN)coc2c1
Found: 398

Lookup: Give the value of emission maximum reported for the following: CN(C)c1ccc(/C=C2\CC/C(=C\c3ccc(C#N)cc3)C2=O)cc1
Found: 648

Lookup: Recall and state the measured emission maximum for CC1(C)[C@@H]2CC[C@]1(C)c1nc3cc(-c4cccs4)ccc3nc12 .
Found: 442

Lookup: Supply emission maximum value. Item: CCN1C(=CC=Cc2n(CC)c3cc(Cl)c(Cl)cc3[n+]2CC)N(CC)c2cc(Cl)c(Cl)cc21
Found: 534

Lookup: Specify emission maximum for c1ccc2c(-c3ccc(-c4nnc(-c5ccc(-c6nnc(-c7ccc(-c8cccc9ccccc89)s7)o6)cc5)o4)s3)cccc2c1 and stop.
Found: 451

Lookup: Specify measured emission maximum for CCCN1C(=O)C(=CC=CC=C2Oc3ccccc3N2CCCS(=O)(=O)[O-])C(=O)N(CCC)C1=S .
Found: 583

Lookup: Give emission maximum for the following molecule: CCCCCCC(CCCCCC)N1C(=O)c2cccc3c(-c4ccc(-c5ccc(OC)cc5)cc4)ccc(c23)C1=O
Found: 556.6

----------
- method: solvent given as SMILES
- measurementParameters: in ClCCl
metricName: emission maximum (nm)
Response body: numeric value in nm, unit text excluded.

CCCCN(CCCC)c1ccc(C#Cc2cc(C#Cc3ccc(C(F)(F)F)cc3)c(C#Cc3ccc(N(CCCC)CCCC)cc3)cc2C#Cc2ccc(C(F)(F)F)cc2)cc1    546

Lookup: Write down emission maximum measured for item COc1cc(OC)cc(C2=[O+][B-](F)(F)OC(c3cccs3)=C2)c1
Found: 567

Lookup: Note emission maximum for the compound shown: O=Cc1ccc(N(c2ccc(C=O)cc2)c2ccc(-c3ccc4c(c3)C(=O)c3ccccc3C4=O)cc2)cc1
Found: 685

Lookup: Tell us which emission maximum value is on record for F[B-]1(F)OC(c2ccccc2)=Nc2sc(-c3ccccc3)n[n+]21
Found: 412

----------
- method: solvent given as SMILES
- measurementParameters: in CO
Readings of emission maximum for the listed compounds
# value in nm; strip the unit string

Example cases with answers are listed next.
COc1cnc(-c2cc[n+](C3=C(F)C(F)(F)C(F)(F)[C-]3F)cc2)s1    472
Cn1c(=O)c(/N=N/c2ccc(S(=O)(=O)O)c3ccccc23)c(O)c2ccccc21    562
O=C1c2ccccc2-c2c(-c3ccccc3)c(-c3ccccc3)c(-c3ccccc3)c3cccc1c23    521
c1csc(-c2cnc(-c3cccs3)c3nonc23)c1    616
O=C([O-])c1ccccc1-c1c2cc(I)c(=O)c(I)c-2oc2c(I)c([O-])c(I)cc12    545

Lookup: Please give measured emission maximum of the following entry: CN(C)c1ccc2nc(-c3ccc(/C=N/c4ccccc4)cc3)sc2c1
Found: 639

Lookup: Give emission maximum for the following compound: CC1(C)C(/C=C/C2=C(c3ccc(C(=O)O)cc3)C(=C/C=C3/N(CCCCS(=O)(=O)[O-])c4ccc5ccccc5c4C3(C)C)/CCC2)=[N+](CCCCS(=O)(=O)[O-])c2ccc3ccccc3c21
Found: 811

Lookup: Quick one: give measured emission maximum for CCCCN1C(=O)C(=C/C=C/C=C/C=C2N(CCCC)c3ccccc3N2CCCC)C(=O)N(CCCC)C1=S
Found: 682

----------
- method: solvent given as SMILES
- measurementParameters: in C1CCCCC1
Known emission maximum of a selection of compounds
Form entry: value (nm) — number only.

Example results:
CN(C)c1ccc(-c2cc(=O)c3ccccc3o2)cc1    382.35
c1ccccc1    287.36
CN(C)c1ccc(C#Cc2ccc(-c3nc(C#N)c(C#N)n3C)cc2)cc1    406
C[Si](C)(C)C#Cc1ccc(C#Cc2cnc(C#Cc3ccccc3)nc2)cc1    390
COc1ccc2n1[B-](F)(F)[N+]1=C(c3ccccc3)C=CC1=C2c1ccc(C)cc1    553

API: the following record is the query input.
Lookup: Hello, please tell me recorded emission maximum for this one: COc1cc(/C=C/C(=O)CC(=O)/C=C/c2ccc(O)c(OC)c2)ccc1O
Found: 446

----------
- method: solvent given as SMILES
- measurementParameters: in ClCCl
metricName: emission maximum (nm)
Write the answer as a number in nm, unit excluded.

c1ccc(-c2ccc(-c3cn4ccc[n+]4[n-]3)cc2)cc1    456
Clc1ccc2nc3cc4ccccc4cc3c(-c3ccccc3)c2c1    527
COc1cccc(-n2c(-c3ccccc3)nc(C)c2C)c1    364
N#Cc1ccc(/C=C/c2ncc(-c3ccccc3)o2)cc1    450
N#Cc1c(N2CCCCC2)cc(-c2ccc(O)cc2)c2c1-c1cccc3cccc-2c13    545

Lookup: Look up and state reported emission maximum for CC(C)[Si](C#Cc1cc2c3c(c1)c(=C1c4ccccc4Sc4ccccc41)c1cc(C#C[Si](C(C)C)(C(C)C)C(C)C)cc4c1N3c1c(cc(C#C[Si](C(C)C)(C(C)C)C(C)C)cc1c4=C1c3ccccc3Sc3ccccc31)c2=C1c2ccccc2Sc2ccccc21)(C(C)C)C(C)C
Found: 511

Lookup: Give the reported value of emission maximum for this record: CC1=CC(C)=[N+]2C1=C(c1c(-c3ccccn3)nc3ccccn13)c1c(C)cc(C)n1[B-]2(F)F
Found: 536

----------
- method: solvent given as SMILES
- measurementParameters: in CO
metricName: emission maximum (nm)
Write the answer as a number in nm, unit excluded.

Some compounds with recorded emission maximum:
Cc1ccc(C2=C3C=CC(Cl)=[N+]3[B-](F)(F)n3c(Cl)ccc32)cc1    519
COc1cc(C=O)cc(-c2[nH]c(=O)n3c2-c2ccccc2C3=O)c1O    490

Lookup: Identify measured emission maximum corresponding to COc1ccc(/C=C2\OC(=O)c3cc(N)ccc32)cc1
Found: 486.14

Lookup: Quick one: give measured emission maximum for CC1(C)C(/C=C/C2=C(Oc3ccc(CCN=C=S)cc3Cl)C(=C/C=C3/N(CCCS(=O)(=O)[O-])c4ccccc4C3(C)C)/CCC2)=[N+](CCCS(=O)(=O)[O-])c2ccccc21
Found: 797

----------
- method: solvent given as SMILES
- measurementParameters: in c1cc(-c2cccc(-n3c4ccccc4c4ccccc43)c2)cc(-n2c3ccccc3c3ccccc32)c1
Values of emission maximum strictly less than 500 nm map to True, and values of at least 500 nm map to False.

Check out these entries, answers already filled in.
c1ccc(-c2nc(-c3ccccc3)nc(-c3ccc(-c4ccc5c(c4)[Si](c4ccccc4)(c4ccccc4)c4cc(-c6ccc(-c7nc(-c8ccccc8)nc(-c8ccccc8)n7)cc6)ccc4N5c4ccccc4)cc3)n2)cc1    True
CC(C)(C)c1ccc2c(c1)c1cc(C(C)(C)C)ccc1n2-c1cc(C(=O)c2ccccc2)cc(-n2c3ccc(C(C)(C)C)cc3c3cc(C(C)(C)C)ccc32)c1    True

Turning now to a further record.
Lookup: Record CC1(C)c2ccccc2N(c2ccc3c(c2)c2cc(N4c5ccccc5C(C)(C)c5ccccc54)ccc2c2nc4ccccc4nc32)c2ccccc21 : is its emission maximum strictly below 500 nm?
Found: False

----------
Documented emission maximum across a set of molecules
- method: solvent given as SMILES
- measurementParameters: in CC#N
The answer is to be given in nm; state only the numeric part.

Look over these answered cases.
COc1ccc(-n2cccc2)cc1    327
Oc1ccc2ccccc2c1/C=N/CC/N=C/c1c(O)ccc2ccccc12    466
Cc1cc(O)c(C(=O)/C=C/c2ccccc2O)c(=O)o1    510

Lookup: Note emission maximum for the molecule shown: COc1ccc(-c2nc3c(c4c2-c2ccc(C#N)cc2CC4)-c2ccc(C#N)cc2CC3)cc1
Found: 430

----------
The entries below come with measured emission maximum values attached.
- method: solvent given as SMILES
- measurementParameters: in ClC(Cl)Cl
Answer in nm, number only, no unit symbol.

Use the examples below as a reference point.
F[B-]1(F)OC(c2ccccc2)=Nc2sc(-c3ccccc3)n[n+]21    413
CCc1ccc(-n2c3ccccc3c3cc4c(cc32)c2ccccc2n4-c2ccc(CC)cc2)cc1    415
CO[Si](c1c2ccccc2cc2ccccc12)(c1c2ccccc2cc2ccccc12)c1c2ccccc2cc2ccccc12    439
N#Cc1cc2ccc(O)cc2oc1=N    415
COc1ccc2c(c1)c(C#N)cc1c(OC)c(OC)c3cc(C#N)c4cc(OC)ccc4c3c12    496

Lookup: Consider the molecule CCCCCCCCN1C(=O)c2ccc3c4c(-c5ccc6c(c5)c5ccccc5n6-c5ccccc5)cc5c6c(ccc(c7c(-c8ccc9c(c8)c8ccccc8n9-c8ccccc8)cc(c2c37)C1=O)c64)C(=O)N(CCCCCCCC)C5=O and give its recorded emission maximum.
Found: 689

Lookup: Give emission maximum for the following molecule: COc1ccc(C2=c3sc(-c4ccc(OC)cc4)c(-c4ccc(OC)cc4)c3=[N+]3C2=Nc2c(-c4ccc(OC)cc4)c4sc(-c5ccc(OC)cc5)c(-c5ccc(OC)cc5)c4n2[B-]3(F)F)cc1
Found: 816

Lookup: For the molecule O=C1NC(=O)c2ccc(N3CCCCC3)c3cccc1c23 , give its measured emission maximum value.
Found: 517

Lookup: Provide measured emission maximum value, entry: CN(c1ccccc1)c1ccc(-c2ccc(-c3ccc(N(C)c4ccccc4)cc3)c3nc(-c4ccccc4)c(-c4ccccc4)nc23)cc1
Found: 640

Lookup: Specify reported emission maximum for the molecule shown: CC(C)(C)c1ccc2c(c1)c1cc(C(C)(C)C)ccc1n2-c1ccc2oc3nc4oc5ccc(C(F)(F)F)cc5c4cc3c2c1
Found: 364

Lookup: Input F[B-]1(F)OC(c2cccc(Br)c2)=Cc2ccc3ccccc3[n+]21 , output reported emission maximum.
Found: 435

Lookup: Determine from records and report emission maximum for N#Cc1cc2sccc2c2c1ccc1ccccc12
Found: 382

Lookup: Give emission maximum for the following molecule: COc1cccc(-n2c(-c3ccc(F)cc3)nc(C)c2C)c1
Found: 369

Lookup: Name the recorded emission maximum of the molecule listed here: CCCCCCC(CCCCCC)N1C(=O)c2cccc3c(-c4ccc(-c5ccc(OC)cc5)cc4)ccc(c23)C1=O
Found: 492.2

Lookup: Respond only with emission maximum recorded for CCCN1C(=O)C(=CC=CC=C2Oc3ccccc3N2CCCS(=O)(=O)[O-])C(=O)N(CCC)C1=S
Found: 589

Lookup: Using known records, supply emission maximum for [C-]#[N+]c1ccc(-c2ccc(N(C)C)cc2)cc1
Found: 405

Lookup: Report emission maximum, nothing else, for this molecule: CCCCCCN1C(=O)c2cccc3c(-c4ccc(-c5ccc(-c6ccc7c8c(cccc68)C(=O)N(CCCCCC)C7=O)s5)s4)ccc(c23)C1=O
Found: 542

Values were extracted from the Deep4Chem optical property database.
